experiment: Plasma cholesterol and triglyceride levels in huCETP transgenic mice (Example 5); type: in vivo; conditions: 50 mg/kg i.p. twice per week, Week 3
e = 2'-O-(2-methoxyethyl) (MOE); d = 2'-deoxy (DNA)
measurementName: Percentage of HDL in total cholesterol (%)
Give a bare numeral; the unit % is implied.

• ISIS 349515: 5-10-5 MOE gapmer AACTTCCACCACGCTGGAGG (sugars from the 5' end e5 d10 e5, backbone and methylation of C not given here) = 68
• ISIS 349512: 5-10-5 MOE gapmer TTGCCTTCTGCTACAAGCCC (sugars from the 5' end e5 d10 e5, backbone and methylation of C not given here) = 74
• ISIS 349511: 5-10-5 MOE gapmer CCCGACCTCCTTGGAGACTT (sugars from the 5' end e5 d10 e5, backbone and methylation of C not given here) = 73

Let us examine a further case.
Challenge: Recorded Percentage of HDL in total cholesterol for ISIS 349517: 5-10-5 MOE gapmer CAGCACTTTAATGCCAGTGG (sugars from the 5' end e5 d10 e5, backbone and methylation of C not given here) , please?
Response given: 75

----------
tested on: human CETP mRNA; assay: Dose-dependent antisense inhibition of human CETP in SW872 liposarcoma cells (Example 2); type: cell-based; conditions: 150 nM, Lipofectin, ~16 hours (Example 2)
Strand notation (5' to 3'): a small letter for the sugar, then the base; units joined by * are phosphorothioate-linked, units joined directly phosphodiester-linked; [ ] holds rarer units or linkages, { } end groups; capitals alone tell only the bases. e = 2'-O-(2-methoxyethyl) (MOE); [5mC] = 5-methylcytosine; d = 2'-deoxy (DNA)
measurementName: percent inhibition of CETP (%)
The figure you give is taken to be in %; do not add the unit.

Challenge: Entry ISIS 349513: 5-10-5 MOE gapmer TCCAGCTGTGAGCCTGGTGC (eT*e[5mC]*e[5mC]*eA*eG*d[5mC]*dT*dG*dT*dG*dA*dG*d[5mC]*d[5mC]*dT*eG*eG*eT*eG*e[5mC]) has what percent inhibition of CETP?
Response given: 100

Challenge: Request: ISIS 349483: 5-10-5 MOE gapmer CTCTGAGACATTCTTGTAGA (e[5mC]*eT*e[5mC]*eT*eG*dA*dG*dA*d[5mC]*dA*dT*dT*d[5mC]*dT*dT*eG*eT*eA*eG*eA)
Response given: 98

Challenge: Please give the result for ISIS 349461: 5-10-5 MOE gapmer ATACTTGACTTGGCCAAGGA (eA*eT*eA*e[5mC]*eT*dT*dG*dA*d[5mC]*dT*dT*dG*dG*d[5mC]*d[5mC]*eA*eA*eG*eG*eA) too.
Response given: 80

----------
system: human CETP mRNA; test: Dose-dependent antisense inhibition of human CETP in SW872 liposarcoma cells (Example 2); assay type: cell-based; settings: 50 nM, Lipofectin, ~16 hours (Example 2)
Strand notation (5' to 3'): a small letter for the sugar, then the base; units joined by * are phosphorothioate-linked, units joined directly phosphodiester-linked; [ ] holds rarer units or linkages, { } end groups; capitals alone tell only the bases. e = 2'-O-(2-methoxyethyl) (MOE); [5mC] = 5-methylcytosine; d = 2'-deoxy (DNA)
Reported values of percent inhibition of CETP for individual entries
Response body: numeric value in %, unit text excluded.

These solved cases illustrate the format of a correct answer.
- ISIS 349483: 5-10-5 MOE gapmer CTCTGAGACATTCTTGTAGA (e[5mC]*eT*e[5mC]*eT*eG*dA*dG*dA*d[5mC]*dA*dT*dT*d[5mC]*dT*dT*eG*eT*eA*eG*eA): 100
- ISIS 349513: 5-10-5 MOE gapmer TCCAGCTGTGAGCCTGGTGC (eT*e[5mC]*e[5mC]*eA*eG*d[5mC]*dT*dG*dT*dG*dA*dG*d[5mC]*d[5mC]*dT*eG*eG*eT*eG*e[5mC]): 97

// next entry
Challenge: Query: percent inhibition of CETP; subject: ISIS 349461: 5-10-5 MOE gapmer ATACTTGACTTGGCCAAGGA (eA*eT*eA*e[5mC]*eT*dT*dG*dA*d[5mC]*dT*dT*dG*dG*d[5mC]*d[5mC]*eA*eA*eG*eG*eA)
Response given: 75
